- Tested on: HeLa Kyoto
- experimental-protocol: melting temperature (median over replicates), in situ; higher = more thermally stable
- condition-context: cell cycle stage: G1/S
recorded-endpoint: melting temperature (°C)
One number for each entry, in °C.

>  <sequence-input>
MALHSMRKARERWSFIRALHKGSAAAPALQKDSKKRVFSGIQPTGILHLGNYLGAIESWVRLQDEYDSVLYSIVDLHSITVPQDPAVLRQSILDMTAVLLACGINPEKSILFQQSQVSEHTQLSWILSCMVRLPRLQHLHQWKAKTTKQKHDGTVGLLTYPVLQAADILLYKSTHVPVGEDQVQHMELVQDLAQGFNKKYGEFFPVPESILTSMKKVKSLRDPSAKMSKSDPDKLATVRITDSPEEIVQKFRKAVTDFTSEVTYDPAGRAGVSNIVAVHAAVTGLSVEEVVRRSAGMNTARYKLAVADAVIEKFAPIKREIEKLKLDKDHLEKVLQIGSAKAKELAYTVCQEVKKLVGFL [WARS2]

>  <experimental-target>
HeLa Kyoto

>  <recorded-endpoint>
melting temperature

>  <recorded-measurement>
48.7

$$$$

Lab note: next sequence to report on.
Fill in melting temperature for record MLKPALEPRGGFSFENCQRNASLERVLPGLKVPHARKTGTTIAGLVFQDGVILGADTRATNDSVVADKSCEKIHFIAPKIYCCGAGVAADAEMTTRMVASKMELHALSTGREPRVATVTRILRQTLFRYQGHVGASLIVGGVDLTGPQLYGVHPHGSYSRLPFTALGSGQDAALAVLEDRFQPNMTLEAAQGLLVEAVTAGILGDLGSGGNVDACVITKTGAKLLRTLSSPTEPVKRSGRYHFVPGTTAVLTQTVKPLTLELVEETVQAMEVE [PSMB10] 53.3

---

Exercise: state measured melting temperature for each of the sequences provided.
- Tested on: HeLa Kyoto
- experimental-protocol: melting temperature (median over replicates), in situ; higher = more thermally stable
- condition-context: cell cycle stage: G1/S
One number for each entry, in °C.

Here are 3 sequences together with their reported answers.
>  <sequence-input>
MACLSPSQLQKFQQDGFLVLEGFLSAEECVAMQQRIGEIVAEMDVPLHCRTEFSTQEEEQLRAQGSTDYFLSSGDKIRFFFEKGVFDEKGNFLVPPEKSINKIGHALHAHDPVFKSITHSFKVQTLARSLGLQMPVVVQSMYIFKQPHFGGEVSPHQDASFLYTEPLGRVLGVWIAVEDATLENGCLWFIPGSHTSGVSRRMVRAPVGSAPGTSFLGSEPARDNSLFVPTPVQRGALVLIHGEVVHKSKQNLSDRSRQAYTFHLMEASGTTWSPENWLQPTAELPFPQLYT [PHYHD1]

>  <units-text>
°C

>  <recorded-measurement>
50.2

$$$$
>  <sequence-input>
MATLRRLREAPRHLLVCEKSNFGNHKSRHRHLVQTHYYNYRVSFLIPECGILSEELKNLVMNTGPYYFVKNLPLHELITPEFISTFIKKGSCYALTYNTHIDEDNTVALLPNGKLILSLDKDTYEETGLQGHPSQFSGRKIMKFIVSIDLMELSLNLDSKKYERISWSFKEKKPLKFDFLLAWHKTGSEESTMMSYFSKYQIQEHQPKVALSTLRDLQCPVLQSSELEGTPEVSCRALELFDWLGAVFSNVDLNNEPNNFISTYCCPEPSTVVAKAYLCTITGFILPEKICLLLEHLCHYFDEPKLAPWVTLSVQGFADSPVSWEKNEHGFRKGGEHLYNFVIFNNQDYWLQMAVGANDHCPP [RPP40]

>  <units-text>
°C

>  <recorded-measurement>
55.5

$$$$
>  <sequence-input>
MAGKKNVLSSLAVYAEDSEPESDGEAGIEAVGSAAEEKGGLVSDAYGEDDFSRLGGDEDGYEEEEDENSRQSEDDDSETEKPEADDPKDNTEAEKRDPQELVASFSERVRNMSPDEIKIPPEPPGRCSNHLQDKIQKLYERKIKEGMDMNYIIQRKKEFRNPSIYEKLIQFCAIDELGTNYPKDMFDPHGWSEDSYYEALAKAQKIEMDKLEKAKKERTKIEFVTGTKKGTTTNATSTTTTTASTAVADAQKRKSKWDSAIPVTTIAQPTILTTTATLPAVVTVTTSASGSKTTVISAVGTIVKKAKQ [SAP30BP]

>  <units-text>
°C

>  <recorded-measurement>
52.6

$$$$

Here's the next entry for you.
Please report melting temperature for the following sequence: MDEDGLPLMGSGIDLTKVPAIQQKRTVAFLNQFVVHTVQFLNRFSTVCEEKLADLSLRIQQIETTLNILDAKLSSIPGLDDVTVEVSPLNVTSVTNGAHPEATSEQPQQNSTQDSGLQESEVSAENILTVAKDPRYARYLKMVQVGVPVMAIRNKMISEGLDPDLLERPDAPVPDGESEKTVEESSDSESSFSD [CCDC53] 52.7

---

Hi there, I'd appreciate the recorded melting temperature for every entry that follows.
- System: HeLa Kyoto
- experimental-protocol: melting temperature (median over replicates), in situ; higher = more thermally stable
- condition-context: cell cycle stage: G1/S
Answers are plain numbers, in °C.

The examples below pair each entry with its known result.
>  <sequence-input>
MTGNAGEWCLMESDPGVFTELIKGFGCRGAQVEEIWSLEPENFEKLKPVHGLIFLFKWQPGEEPAGSVVQDSRLDTIFFAKQVINNACATQAIVSVLLNCTHQDVHLGETLSEFKEFSQSFDAAMKGLALSNSDVIRQVHNSFARQQMFEFDTKTSAKEEDAFHFVSYVPVNGRLYELDGLREGPIDLGACNQDDWISAVRPVIEKRIQKYSEGEIRFNLMAIVSDRKMIYEQKIAELQRQLAEEEPMDTDQGNSMLSAIQSEVAKNQMLIEEEVQKLKRYKIENIRRKHNYLPFIMELLKTLAEHQQLIPLVEKAKEKQNAKKAQETK [UCHL5]

>  <melting temperature, °C>
48.7

$$$$
>  <sequence-input>
MAATALLEAGLARVLFYPTLLYTLFRGKVPGRAHRDWYHRIDPTVLLGALPLRSLTRQLVQDENVRGVITMNEEYETRFLCNSSQEWKRLGVEQLRLSTVDMTGIPTLDNLQKGVQFALKYQSLGQCVYVHCKAGRSRSATMVAAYLIQVHKWSPEEAVRAIAKIRSYIHIRPGQLDVLKEFHKQITARATKDGTFVISKT [PTPMT1]

>  <melting temperature, °C>
51.8

$$$$

Proceed to the following item.
Indicate the recorded melting temperature value for this sequence: MAARRALHFVFKVGNRFQTARFYRDVLGMKVESCSVARLECSGAISAHCSDYTRITEDSFSKPYDGKWSKTMVGFGPEDDHFVAELTYNYGVGDYKLGNDFMGITLASSQAVSNARKLEWPLTEVAEGVFETEAPGGYKFYLQNRSLPQSDPVLKVTLAVSDLQKSLNYWCNLLGMKIYEKDEEKQRALLGYADNQCKLELQGVKGGVDHAAAFGRIAFSCPQKELPDLEDLMKRENQKILTPLVSLDTPGKATVQVVILADPDGHEICFVGDEAFRELSKMDPEGSKLLDDAMAADKSDEWFAKHNKPKASG [GLOD4] 50.8

---

- System: HeLa Kyoto
- experimental-protocol: solubility in G1/S (NP-40 vs SDS abundance) (log2 ratio); higher = more soluble
- condition-context: cell cycle stage: G1/S
Rule: solubility in G1/S (log2) of 0.1 or more gives true (1); anything lower gives false (0).

Please check the record MAQEEEDVRDYNLTEEQKAIKAKYPPVNRKYEYLDHTADVQLHAWGDTLEEAFEQCAMAMFGYMTDTGTVEPLQTVEVETQGDDLQSLLFHFLDEWLYKFSADEFFIPREVKVLSIDQRNFKLRSIGWGEEFSLSKHPQGTEVKAITYSAMQVYNEENPEVFVIIDI [ZBTB8OS] and state if its solubility in G1/S (log2) is at or above 0.1. true (1)

Reported solubility in G1/S (log2) reaches at least 0.1 for MTGNAGEWCLMESDPGVFTELIKGFGCRGAQVEEIWSLEPENFEKLKPVHGLIFLFKWQPGEEPAGSVVQDSRLDTIFFAKQVINNACATQAIVSVLLNCTHQDVHLGETLSEFKEFSQSFDAAMKGLALSNSDVIRQVHNSFARQQMFEFDTKTSAKEEDAFHFVSYVPVNGRLYELDGLREGPIDLGACNQDDWISAVRPVIEKRIQKYSEGEIRFNLMAIVSDRKMIYEQKIAELQRQLAEEEPMDTDQGNSMLSAIQSEVAKNQMLIEEEVQKLKRYKIENIRRKHNYLPFIMELLKTLAEHQQLIPLVEKAKEKQNAKKAQETK [UCHL5] ? true (1)

Could you verify whether the entry MSGSVLFTAGERWRCFLTPSRSSLYWALHNFCCRKKSTTPKKITPNVTFCDENAKEPENALDKLFSSEQQASILHVLNTASTKELEAFRLLRGRRSINIVEHRENFGPFQNLESLMNVPLFKYKSTVQVCNSILCPKTGREKRKSPENRFLRKLLKPDIERERLKAVNSIISIVFGTRRIAWAHLDRKLTVLDWQQSDRWSLMRGIYSSSVYLEEISSIISKMPKADFYVLEKTGLSIQNSSLFPILLHFHIMEAMLYALLNKTFAQDGQHQVLSMNRNAVGKHFELMIGDSRTSGKELVKQFLFDSILKADPRVFFPSDKIVHYRQMFLSTELQRVEELYDSLLQAIAFYELAVFDSQP [TEFM] shows solubility in G1/S (log2) of no less than 0.1? false (0)

Is solubility in G1/S (log2) at least 0.1? Consider MAAPRWSASGPWIRGNGQGCGSLFTLVSKPFCAAAAASTAINAQRLAEKLRAQKREQDTKKEPVSTNAVQRRVQEIVRFTRQLQRVHPNVLAKALTRGILHQDKNLVVINKPYGLPVHGGPGVQLCITDVLPILAKMLHGHKAEPLHLCHRLDKETTGVMVLAWDKDMAHQVQELFRTRQVVKKYWAITVHVPMPSAGVVDIPIVEKEAQGQQQHHKMTLSPSYRMDDGKMVKVRRSRNAQVAVTQYQVLSSTLSSALVELQPITGIKHQLRVHLSFGLDCPILGDHKYSDWNRLAPQKLSVGTLKKLGLEQSKARYIPLHLHARQLILPALGSGKEELNLVCKLPRFFVHSLHRLRLEMPNEDQNENNEAKCLGAQ [RPUSD4] false (0)

Does solubility in G1/S (log2) meet or surpass 0.1 for MDAPRQVVNFGPGPAKLPHSVLLEIQKELLDYKGVGISVLEMSHRSSDFAKIINNTENLVRELLAVPDNYKVIFLQGGGCGQFSAVPLNLIGLKAGRCADYVVTGAWSAKAAEEAKKFGTINIVHPKLGSYTKIPDPSTWNLNPDASYVYYCANETVHGVEFDFIPDVKGAVLVCDMSSNFLSKPVDVSKFGVIFAGAQKNVGSAGVTVVIVRDDLLGFALRECPSVLEYKVQAGNSSLYNTPPCFSIYVMGLVLEWIKNNGGAAAMEKLSSIKSQTIYEIIDNSQGFYVCPVEPQNRSKMNIPFRIGNAKGDDALEKRFLDKALELNMLSLKGHRSVGGIRASLYNAVTIEDVQKLAAFMKKFLEMHQL [PSAT1] ? true (1)
